Target: glucokinase (GK) enzyme (Homo sapiens, UniProt P35557)
Sequence (P35557 1-465): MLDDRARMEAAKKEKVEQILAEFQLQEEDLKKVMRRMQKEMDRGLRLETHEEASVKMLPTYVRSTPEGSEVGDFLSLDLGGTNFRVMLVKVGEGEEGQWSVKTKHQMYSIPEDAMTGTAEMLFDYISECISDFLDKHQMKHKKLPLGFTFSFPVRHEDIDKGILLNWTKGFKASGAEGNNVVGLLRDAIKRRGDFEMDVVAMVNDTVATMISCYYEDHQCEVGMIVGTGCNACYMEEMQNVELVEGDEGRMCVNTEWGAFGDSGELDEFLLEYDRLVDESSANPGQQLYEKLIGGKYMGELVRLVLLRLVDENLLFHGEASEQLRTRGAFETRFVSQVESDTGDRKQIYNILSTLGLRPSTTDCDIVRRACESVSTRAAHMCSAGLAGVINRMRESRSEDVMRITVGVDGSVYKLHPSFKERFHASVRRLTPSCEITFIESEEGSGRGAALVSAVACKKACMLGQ
Assay: In-vitro glucokinase (GK) activation assay (coupled with glucose-6-phosphate dehydrogenase, absorbance at 340)
Assay type: biochemical
Conditions: 10 uM compound; glucose 2.5 mM; read-out: % of GK activity wrt DMSO
Observed Property: activity at 10 µM (%)

# Compound, Unit Text, activity at 10 µM
records = [
    ("Cc1nnc(-c2ccc(Oc3cc(OC4CCN(C)C4=O)cc(C(=O)Nc4nccs4)c3)cc2)o1 (centres unmarked)", "%", 309),
    ("Cc1csc(NC(=O)c2cc(Oc3ccc(-c4nnc(C)o4)cc3)cc(OC3CCN(C(C)C)C3=O)c2)n1 (centres unmarked)", "%", 280),
    ("Cc1csc(NC(=O)c2cc(Oc3ccc(-c4nnc(C)o4)cc3)cc(OC3CCN(C)C3=O)c2)n1 (centres unmarked)", "%", 318),
    ("CN1CCC(Oc2cc(Oc3ccc(-c4nnc(C5CC5)o4)cc3)cc(C(=O)Nc3nccs3)c2)C1=O (centres unmarked)", "%", 382),
    ("Cc1nnc(-c2ccc(Oc3cc(OC4CCN(C(C)C)C4=O)cc(C(=O)Nc4nccs4)c3)cc2)o1 (centres unmarked)", "%", 280),
]
